Readings of koff for the listed binders
# Measured on: T1, recombinant mouse VISTA (His-tagged) (mouse, UniProt Q9D659 33-191)
# T1 construct: also called murine VISTA; mVISTA
# T1 sequence (looked up): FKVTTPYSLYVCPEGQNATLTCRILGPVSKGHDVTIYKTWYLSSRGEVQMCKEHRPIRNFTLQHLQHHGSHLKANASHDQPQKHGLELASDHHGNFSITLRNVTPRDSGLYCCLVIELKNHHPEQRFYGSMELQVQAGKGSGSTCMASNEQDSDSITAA
# Protocol text: BLI (Octet), 1:1 global fit, His-tagged mouse VISTA captured
Parameter measured: koff (s⁻¹)

- anti-VISTA clone V4-C30 IgG1 (antibody, V domains shown) VH: QVQLQESGPGLVKPSDTLSLTCTVSGYSITSDYTWNWIRQTPGKGLEWIGHITYSGSVSYNPSLRSRVTISRDTSKNQFSLKLSSVTAADTATYSCARALYYPWYFDVWGTGTTVTVSS VL: EIVLTQSPATLSLSPGERATLSCRASSSVGYIHWYQQKPGQAPRPLIYATYYRATGIPARFSGSGSGTDNTLTISSLEPEDSAVYYCQQWSSYPPITFGGGTKLEVKR: 2.8e-06
- anti-VISTA clone V4-C9 IgG1 (antibody, V domains shown) VH: QVQLQESGPGLVKPSDTLSLTCTVSGYSITSDYAWNWIRQTPGKGLEWIGYITYSGYVSYNPSLRSRVTISRDTSKNQFSLKLSSVTAADTAVYSCARALYYPWYFDVWGTGTTVTVSS VL: EIVLTQSPATLSLSPGERATLSCRASSSVGYIHWYQQKPGQAPRPLIYATSNRATGIPARFSGSGSGTDNTLTISSLEPEDSAVYYCQQWSSYPPITFGGGTKLEVKR: 0.00118
- anti-VISTA clone V4-C1 IgG1 (antibody, V domains shown) VH: QVQLQESGPGLVKPSDTLSLTCTVSGYSITSDYAWNWIRQTPGKGLEWIGYITYSGYISYNPSLRSRVTISRDTSKNQFSLKLSSVTAADTAVYSCARALYYPWYFDVWGTGTTVTVSS VL: EIVITQSPATLSLSPGERATLSCRASSSVGYIHWYQQKPGQAPRPLIYATSNRATGIPARFSGSGSGTDNTLTISSLEPEDSAVYYCQQWSSYPPITFGGGTKLEVKR: 0.0147
- anti-VISTA clone V4-C28 IgG1 (antibody, V domains shown) VH: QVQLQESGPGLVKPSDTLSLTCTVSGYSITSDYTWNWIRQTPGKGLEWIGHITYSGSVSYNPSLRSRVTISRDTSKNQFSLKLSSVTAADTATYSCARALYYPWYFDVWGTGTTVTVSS VL: EIVLTQSPATLSLSPGERATLSCRASSSVGYIHWYQQKPGQAPRPLIYATSYRATGIPARFSGSGSGTDNTLTISSLEPEDSAVYYCQQWSSYPPITFGGGTKLEVKR: 8.2e-05
